Listing: residual activity of selected compounds
- target or system: RAC-alpha serine/threonine-protein kinase (Homo sapiens) (UniProt P31749)
- Sequence (P31749 whole entry): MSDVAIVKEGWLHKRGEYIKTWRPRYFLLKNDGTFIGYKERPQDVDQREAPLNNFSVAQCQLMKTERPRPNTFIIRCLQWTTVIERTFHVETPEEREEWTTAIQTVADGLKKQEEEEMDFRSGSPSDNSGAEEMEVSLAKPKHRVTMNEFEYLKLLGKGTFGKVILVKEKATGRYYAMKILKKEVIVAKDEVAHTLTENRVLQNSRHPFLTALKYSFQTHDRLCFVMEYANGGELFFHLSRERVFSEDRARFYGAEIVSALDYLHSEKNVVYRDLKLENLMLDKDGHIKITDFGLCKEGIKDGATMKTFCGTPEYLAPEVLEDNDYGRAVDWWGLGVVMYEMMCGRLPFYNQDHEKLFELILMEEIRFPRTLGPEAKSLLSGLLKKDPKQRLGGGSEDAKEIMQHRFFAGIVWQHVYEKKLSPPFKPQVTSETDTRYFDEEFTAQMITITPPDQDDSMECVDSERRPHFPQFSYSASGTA
- test details: Inhibition of AKT1 (unknown origin) at 1 uM by KINOMEscanning assay relative to control; values are per cent of control
The answer is to be given in %; state only the numeric part.

# mol, target or system, endpoint unit, residual activity
data = [
    ("COc1cc(-c2c[nH]c3ncc(-c4cccc(N)c4)cc23)cc(OC)c1OC", "RAC-alpha serine/threonine-protein kinase (Homo sapiens) (UniProt P31749)", "%", 87),
    ("COc1ccc(-c2c[nH]c3ncc(-c4cc(OC)c(OC)c(OC)c4)cc23)cc1OC", "RAC-alpha serine/threonine-protein kinase (Homo sapiens) (UniProt P31749)", "%", 98),
    ("COc1ccc(-c2cnc3[nH]cc(-c4ccc(OC)c(OC)c4)c3c2)cc1OC", "RAC-alpha serine/threonine-protein kinase (Homo sapiens) (UniProt P31749)", "%", 100),
    ("COc1ccc(-c2c[nH]c3ncc(-c4ccc(C(=O)N5CCOCC5)c(N)c4)cc23)cc1OC", "RAC-alpha serine/threonine-protein kinase (Homo sapiens) (UniProt P31749)", "%", 100),
]

Could you now look at the following compound, please?
Task item: State its residual activity on RAC-alpha serine/threonine-protein kinase (Homo sapiens) (UniProt P31749): COc1ccc(-c2cnc3[nH]cc(-c4ccc(OC)c(OC)c4)c3c2)cc1N
Reply: 92
